molecular target: UniProt:P22607; test: Kinase assay, binding constants (Kd), kinase-tagged T7 phage, qPCR
Sequence (P22607 23-806): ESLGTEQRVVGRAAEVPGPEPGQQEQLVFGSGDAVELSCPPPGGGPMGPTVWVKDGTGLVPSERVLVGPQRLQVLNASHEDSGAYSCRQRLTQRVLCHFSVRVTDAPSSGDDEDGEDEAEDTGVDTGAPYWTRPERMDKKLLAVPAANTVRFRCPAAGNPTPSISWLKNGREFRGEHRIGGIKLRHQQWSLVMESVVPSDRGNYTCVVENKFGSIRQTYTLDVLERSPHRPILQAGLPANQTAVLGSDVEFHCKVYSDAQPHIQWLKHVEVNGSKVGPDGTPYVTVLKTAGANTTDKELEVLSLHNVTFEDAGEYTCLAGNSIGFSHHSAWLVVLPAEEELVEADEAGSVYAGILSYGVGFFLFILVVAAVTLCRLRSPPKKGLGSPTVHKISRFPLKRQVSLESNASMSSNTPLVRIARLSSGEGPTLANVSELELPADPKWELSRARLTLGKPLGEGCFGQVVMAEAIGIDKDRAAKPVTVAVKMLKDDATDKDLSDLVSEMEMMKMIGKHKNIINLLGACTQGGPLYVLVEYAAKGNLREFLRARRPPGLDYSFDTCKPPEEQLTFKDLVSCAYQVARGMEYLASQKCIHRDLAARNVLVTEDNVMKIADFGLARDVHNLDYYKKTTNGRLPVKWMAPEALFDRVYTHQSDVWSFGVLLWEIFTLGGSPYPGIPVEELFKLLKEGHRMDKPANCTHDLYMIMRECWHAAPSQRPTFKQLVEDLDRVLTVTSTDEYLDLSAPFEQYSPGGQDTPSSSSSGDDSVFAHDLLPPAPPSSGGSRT
Measurement type: Kd

compound=CCS(=O)(=O)N1CC2(CN(c3ccc(-c4n[nH]c5ccc(O[C@H](C)c6c(Cl)cnc(C)c6Cl)cc45)cn3)C2)C1 measurement_type=Kd meas_value="1 to 20 nM"
compound=Cc1cc(-c2n[nH]c3ccc(O[C@H](C)c4c(Cl)cncc4Cl)cc23)cnc1N1CCOCC1 measurement_type=Kd meas_value="1 to 20 nM"
compound=CCOC(=O)N1CC2(C1)CN(c1ccc(-c3n[nH]c4ccc(O[C@H](C)c5c(C)cnnc5C)cc34)cn1)C2 measurement_type=Kd meas_value="1 to 20 nM"
compound=Cc1ncc(Cl)c([C@@H](C)Oc2ccc3[nH]nc(-c4cnn(C5CCN(C6COC6)CC5)c4)c3c2)c1Cl measurement_type=Kd meas_value="1 to 20 nM"
compound=C[C@@H](Oc1ccc2[nH]nc(-c3ccc(N4CCC5(CCOC5)CC4)nc3)c2c1)c1c(Cl)cncc1Cl measurement_type=Kd meas_value="1 to 20 nM"
compound="COc1cc2[nH]nc(-c3cnc(N4CC5(COC5)C4)c(C#N)c3)c2cc1O[C@H](C)c1c(C)cnnc1C [Example 324]" measurement_type=Kd meas_value="20 to 100 nM"
compound=C[C@@H](Oc1ccc2[nH]nc(-c3cnc(N4CC(C)(N)C4)c(F)c3)c2c1)c1c(Cl)cncc1Cl measurement_type=Kd meas_value="1 to 20 nM"
compound=COc1cc2[nH]nc(-c3cnc(N4CC[C@@H]4C)c(S(C)(=O)=O)c3)c2cc1O[C@H](C)c1c(Cl)cncc1Cl measurement_type=Kd meas_value="100 to 300 nM"
compound=C[C@@H](Oc1ccc2[nH]nc(-c3cnc(N4CCC[C@H]4CO)c(C#N)c3)c2c1)c1c(Cl)cncc1Cl measurement_type=Kd meas_value="1 to 20 nM"
compound=C[C@H](Oc1ccc2[nH]nc(-c3cnc(N4CCC4)c(C#N)c3)c2c1)c1c(Cl)cnc(F)c1Cl measurement_type=Kd meas_value="> 300 nM"
compound=C[C@@H](Oc1ccc2[nH]nc(-c3ccc(N4CCC5(CC4)C(=O)NCCN5C)nc3)c2c1)c1c(Cl)cncc1Cl measurement_type=Kd meas_value="1 to 20 nM"
compound="C[C@@H](Oc1ccc2[nH]nc(-c3ccc(N4CC5(CCN(S(C)(=O)=O)C5)C4)nc3)c2c1)c1c(Cl)cncc1Cl [Example 115]" measurement_type=Kd meas_value="1 to 20 nM"
compound=COc1cc2[nH]nc(-c3cnc(N4CC[C@H](C(C)(C)O)C4)c(C#N)c3)c2cc1O[C@H](C)c1c(C)cnnc1C measurement_type=Kd meas_value="1 to 20 nM"
compound=Cc1ncc(Cl)c([C@@H](C)Oc2ccc3[nH]nc(-c4cnc(N5CC6(C5)CN(S(C)(=O)=O)C6)c(F)c4)c3c2)c1Cl measurement_type=Kd meas_value="1 to 20 nM"
